- System Tested: NRAS G12C (Homo sapiens, UniProt P01111+P62937, G12C)
- Sequence (P01111 whole entry G12C): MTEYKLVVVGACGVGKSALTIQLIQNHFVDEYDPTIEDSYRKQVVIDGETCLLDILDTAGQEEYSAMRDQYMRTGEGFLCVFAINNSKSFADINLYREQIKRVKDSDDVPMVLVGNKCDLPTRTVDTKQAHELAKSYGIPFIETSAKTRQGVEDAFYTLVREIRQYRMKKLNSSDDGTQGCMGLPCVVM
- Sequence (P62937 whole entry): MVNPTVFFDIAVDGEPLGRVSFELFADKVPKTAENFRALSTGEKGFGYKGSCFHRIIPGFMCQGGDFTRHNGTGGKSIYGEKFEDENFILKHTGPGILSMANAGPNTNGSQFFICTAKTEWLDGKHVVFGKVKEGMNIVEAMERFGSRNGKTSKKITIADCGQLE
- Test Protocol: Disruption of BRAF RBD interaction with Ras (FRET / MOA assay, with Cyclophilin A)
- Format: biochemical
- Measurement Parameters: NRAS G12C; read-out: NRAS G12C FRET data IC50
pIC50: −log10 of the molar value.
A collection of compounds and their measured pIC50
Measured Quantity: pIC50

[[record]]
compound = "CCn1c(-c2cccnc2[C@H](C)OC)c2c3cc(ccc31)-c1csc(n1)C[C@H](NC(=O)[C@H](C(C)C)N(C)C(=O)N1CCCOCC1)C(=O)N1CCC[C@H](N1)C(=O)OCC(C)(C)C2 (atropisomer, axis not shown)"
value_reported = "7.00 to 8.00"

[[record]]
compound = "CCn1c(-c2cccnc2[C@H](C)OC)c2c3cc(ccc31)-c1csc(n1)C[C@H](NC(=O)[C@H](C(C)C)N(C)C(=O)[C@H]1CCN(C)C1)C(=O)N1CCC[C@H](N1)C(=O)OCC(C)(C)C2"
value_reported = "5.00 to 6.00"

[[record]]
compound = "CCn1c(-c2cccnc2[C@H](C)OC)c2c3cc(ccc31)-c1cc(O)cc(c1)C[C@H](NC(=O)[C@H](C(C)C)N(C)C(=O)[C@@H]1CCN[C@@H]1c1ccccc1)C(=O)N1CCC[C@H](N1)C(=O)OCC(C)(C)C2 (atropisomer, axis not shown)"
value_reported = "7.00 to 8.00"

[[record]]
compound = "CCn1c(-c2cccnc2[C@H](C)OC)c2c3cc(ccc31)-c1cc(O)cc(c1)C[C@H](NC(=O)[C@@H]1C[C@H]1C)C(=O)N1CCC[C@H](N1)C(=O)OCC(C)(C)C2"
value_reported = "5.00 to 6.00"

[[record]]
compound = "C=CC(=O)N1CC(OC[C@H](C(=O)N[C@H]2Cc3cc(F)cc(c3)-c3ccc4c(c3)c(c(-c3cccnc3[C@H](C)OC)n4CC)CC(C)(C)COC(=O)[C@@H]3CCCN(N3)C2=O)C(C)C)C1 (atropisomer, axis not shown)"
value_reported = "6.00 to 7.00"


###

- System Tested: KRAS G12V (Homo sapiens, UniProt P01116+P62937, G12V)
- Sequence (P01116 1-169 isoform P01116-2 G12V limits assumed, one chain of several): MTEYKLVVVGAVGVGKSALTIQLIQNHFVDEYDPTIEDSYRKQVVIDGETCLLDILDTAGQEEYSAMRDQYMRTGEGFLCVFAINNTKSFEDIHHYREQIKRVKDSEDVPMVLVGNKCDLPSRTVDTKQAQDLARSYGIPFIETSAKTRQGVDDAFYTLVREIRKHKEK
- Test Protocol: Disruption of BRAF RBD interaction with Ras (FRET / MOA assay, with Cyclophilin A)
- Format: biochemical
- Measurement Parameters: KRAS G12V; read-out: KRAS G12V FRET data IC50
Measured Quantity: IC50

[[record]]
molecule = "CCn1c(-c2cccnc2COC)c2c3cc(ccc31)-c1cc(O)cc(c1)C[C@H](NC(=O)[C@H](C(C)C)N(C)C(=O)[C@H]1CCN(C(C)=O)C1)C(=O)N1CCC[C@H](N1)C(=O)OCC(C)(C)C2"
value_reported = "100 to 1000 nM"

[[record]]
molecule = "CCn1c(-c2cccnc2[C@H](C)OC)c2c3cc(ccc31)-c1cc(O)cc(c1)C[C@H](NC(=O)[C@H](C(C)C)N(C)C(=O)[C@H]1CCN[C@H]1C)C(=O)N1CCC[C@H](N1)C(=O)OCC(C)(C)C2"
value_reported = "100 to 1000 nM"

[[record]]
molecule = "CCn1c(-c2cccnc2[C@H](C)OC)c2c3cc(ccc31)-c1csc(n1)C[C@H](NC(=O)[C@H](C(C)C)N(C)C(=O)N1C3CC1CS(=O)(=O)C3)C(=O)N1CCC[C@H](N1)C(=O)OCC(C)(C)C2"
value_reported = "100 to 1000 nM"

[[record]]
molecule = "CCn1c(-c2ccccc2CN(C)C)c2c3cc(ccc31)-c1cc(O)cc(c1)C[C@H](NC(=O)[C@H](C(C)C)N(C)C(=O)c1ccc(NC(=O)/C=C/CN(C)C)cn1)C(=O)N1CCC[C@H](N1)C(=O)OCC(C)(C)C2"
value_reported = "1000 to 10000 nM"

[[record]]
molecule = "CCn1c(-c2cccnc2[C@H](C)OC)c2c3cc(ccc31)-c1csc(n1)C[C@H](NC(=O)[C@H](C(C)C)N(C)C(=O)N(C)C1CCC1)C(=O)N1CCC[C@H](N1)C(=O)OCC(C)(C)C2 (atropisomer, axis not shown)"
value_reported = "10 to 100 nM"

[[record]]
molecule = "CCn1c(-c2cc(N3CCN(C)CC3)cnc2[C@H](C)OC)c2c3cc(ccc31)-c1csc(n1)C[C@H](NC(C)=O)C(=O)N1CCC[C@H](N1)C(=O)OCC(C)(C)C2 [Example A321]"
value_reported = "100 to 1000 nM"

[[record]]
molecule = "CCn1c(-c2cccnc2[C@H](C)OC)c2c3cc(ccc31)-c1csc(n1)C[C@H](NC(=O)[C@H](C(C)C)N(C)C(=O)N1CCCC[C@@H](N(C)C)C1)C(=O)N1CCC[C@H](N1)C(=O)OCC(C)(C)C2"
value_reported = "100 to 1000 nM"


###

pIC50 overview
- System Tested: NRAS Q61R (Homo sapiens, UniProt P01111+P62937, Q61R)
- Sequence (P01111 whole entry Q61R, one chain of several): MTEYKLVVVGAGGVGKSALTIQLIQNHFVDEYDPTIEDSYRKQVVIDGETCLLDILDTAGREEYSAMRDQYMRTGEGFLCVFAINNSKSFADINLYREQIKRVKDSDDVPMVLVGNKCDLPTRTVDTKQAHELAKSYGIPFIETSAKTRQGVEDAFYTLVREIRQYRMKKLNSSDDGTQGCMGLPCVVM
- Test Protocol: Disruption of BRAF RBD interaction with Ras (FRET / MOA assay, with Cyclophilin A)
- Type: biochemical
- Measurement Parameters: NRAS Q61R; read-out: NRAS Q61R FRET data IC50
pIC50: −log10 of the molar value.
Measured Quantity: pIC50

[[record]]
compound = "CCn1c(-c2cccnc2[C@H](C)OC)c2c3cc(ccc31)-c1csc(n1)C[C@H](NC(=O)[C@H](C(C)C)N(C)C(=O)N1CC(n3nc(C)cc3C)C1)C(=O)N1CCC[C@H](N1)C(=O)OCC(C)(C)C2"
value_reported = "6.00 to 7.00"

[[record]]
compound = "CCn1c(-c2cccnc2[C@H](C)OC)c2c3cc(ccc31)-c1csc(n1)C[C@H](NC(=O)[C@H](C(C)C)N(C)C(=O)N1CC3(CCN(C)CC3)C1)C(=O)N1CCC[C@H](N1)C(=O)OCC(C)(C)C2"
value_reported = "6.00 to 7.00"

[[record]]
compound = "CCn1c(-c2cccnc2[C@H](C)OC)c2c3cc(ccc31)-c1cccc(c1)C[C@H](NC(=O)[C@@H](COC1CN(C(=O)C#C[C@@H]3COCCN3C)C1)C(C)C)C(=O)N1CCC[C@H](N1)C(=O)OCC(C)(C)C2 (atropisomer, axis not shown)"
value_reported = "< 5.00"

[[record]]
compound = "CCn1c(-c2cccnc2[C@H](C)OC)c2c3cc(ccc31)-c1csc(n1)C[C@H](NC(=O)[C@H](C(C)C)N(C)C(=O)N1CC[C@]13CCCNC3)C(=O)N1CCC[C@H](N1)C(=O)OCC(C)(C)C2"
value_reported = "6.00 to 7.00"

[[record]]
compound = "C=CC(=O)N1CC[C@H](C(=O)N(C)[C@H](C(=O)N[C@H]2Cc3cc(O)cc(c3)-c3ccc4c(c3)c(c(-c3nccnc3COC)n4CC)CC(C)(C)COC(=O)[C@@H]3CCCN(N3)C2=O)C(C)C)C1"
value_reported = "< 5.00"


###

Items are presented alongside their recorded IC50.
- System Tested: KRAS G12C (Homo sapiens, UniProt P01116+P62937, G12C)
- Sequence (P01116 1-169 isoform P01116-2 G12C): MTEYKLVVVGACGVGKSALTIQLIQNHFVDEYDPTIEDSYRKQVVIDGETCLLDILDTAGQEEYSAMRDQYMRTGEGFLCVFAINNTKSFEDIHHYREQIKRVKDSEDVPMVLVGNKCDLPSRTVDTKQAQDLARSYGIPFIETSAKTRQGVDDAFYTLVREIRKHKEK
- Sequence (P62937 whole entry): as the sequence (P62937 whole entry) above
- Test Protocol: Disruption of BRAF RBD interaction with Ras (FRET / MOA assay, with Cyclophilin A)
- Assay type: biochemical
- Measurement Parameters: KRAS G12C; read-out: KRAS G12C FRET data IC50
Measured Quantity: IC50

[[record]]
compound = "C=CC(=O)N1CC(OC[C@H](C(=O)N[C@H]2Cc3cccc(c3)-c3ccc4c(c3)c(c(-c3cccnc3[C@H](C)OC)n4CC)CC(C)(C)COC(=O)[C@@H]3CCCN(N3)C2=O)C(C)C)C1 (racemic) [Example A483]"
system_tested = "KRAS G12C (Homo sapiens, UniProt P01116+P62937, G12C)"
measured_quantity = "IC50"
value_reported = "100 to 1000 nM"

[[record]]
compound = "C=CC(=O)N1CC[C@H](C(=O)N(C)[C@H](C(=O)N[C@H]2Cc3cc(cc(O)c3F)-c3ccc4c(c3)c(c(-c3ccccc3CCOC)n4CC)CC(C)(C)COC(=O)[C@@H]3CCCN(N3)C2=O)C(C)C)C1 [Example A009]"
system_tested = "KRAS G12C (Homo sapiens, UniProt P01116+P62937, G12C)"
measured_quantity = "IC50"
value_reported = "1000 to 10000 nM"

[[record]]
compound = "CC#C[S+]([O-])N1CC[C@H](C(=O)N(C)[C@H](C(=O)N[C@H]2Cc3cccc(c3)-c3ccc4c(c3)c(c(-c3cccnc3[C@H](C)OC)n4CC)CC(C)(C)COC(=O)[C@@H]3CCCN(N3)C2=O)C2CCCC2)C1 (stereo partly drawn) [Example A310]"
system_tested = "KRAS G12C (Homo sapiens, UniProt P01116+P62937, G12C)"
measured_quantity = "IC50"
value_reported = "100 to 1000 nM"

